In this section we review reported chromatographic logP values for a set of compounds.
Assay: log P by HPLC (OECD Guideline 117), method [a] acidic range
Assay type: physicochemical
Conditions: reversed-phase C18 HPLC column, pH 2.7, HPLC method [a], acidic range; read-out: logP[a]
Enter a number only.

{"columns": ["COMPOUND", "chromatographic logP"],
 "data": [
  ["Cc1cc(F)c(-n2nc(C3CCCC3)n(C3CC3)c2=O)cc1SCC(F)(F)F", 4.18],
  ["Cc1cc(F)c(-n2nnn(-c3ccc(Cl)cc3)c2=O)cc1[S+]([O-])CC(F)(F)F (centres unmarked)", 3.53],
  ["CCSc1nn(-c2cc(SCC(F)(F)F)c(C)cc2F)c(=O)n1C", 3.51]
]}

For Cc1cc(F)c(-n2nc(C(F)(F)F)n(C)c2=O)cc1[S+]([O-])CC(F)(F)F (centres unmarked) the compound record lists chromatographic logP as 2.52

For COC1=CC(=O)N(c2cc(SCC(F)(F)F)c(C)cc2F)C1 the compound record lists chromatographic logP as 2.87

For Cc1cc(F)c(-n2nc(C3CC3)n(N(C)C)c2=O)cc1SCC(F)(F)F the compound record lists chromatographic logP as 3.75

For N#Cc1cc(F)c(-n2nc(C(F)(F)F)n(C3CC3)c2=O)cc1[S+]([O-])CC(F)(F)F (centres unmarked) the compound record lists chromatographic logP as 2.92

====

Experiment: log P by HPLC (OECD Guideline 117), method [b] neutral range
Type: physicochemical
Details: HPLC, method [b] neutral range
REPORTED_PROPERTY: logP[b]
Enter a number only.

{"columns": ["COMPOUND", "logP[b]"],
 "data": [
  ["C=CCn1c(OC)nn(-c2cc([S+]([O-])CC(F)(F)F)c(C)cc2F)c1=O (racemic) [Example 183]", 2.21]
]}

For COc1nn(-c2cc([S+]([O-])CC(F)(F)F)c(F)cc2F)c(=O)n1C (stereo not shown) [Example 169] the compound record lists logP[b] as 1.77

For CCCSc1nn(-c2cc(SCC(F)(F)F)c(C)cc2F)c(=O)n1C [Example 277] the compound record lists logP[b] as 3.86

For Cc1cc(F)c(-n2nc([S+]([O-])Cc3ccccc3)n(C)c2=O)cc1[S+]([O-])CC(F)(F)F (stereo not shown) [Example 250] the compound record lists logP[b] as 2.29

For Cc1cc(F)c(-n2nnn(CC(F)(F)F)c2=O)cc1SCC(F)(F)F [Example 304] the compound record lists logP[b] as 3.48

For COc1nn(-c2ccc(C)c(SCC(F)(F)F)c2)c(=O)n1C1CC1 [Example 90] the compound record lists logP[b] as 3.67

====

Test: log P by HPLC (OECD Guideline 117), method [a] acidic range
Assay type: physicochemical
Settings: reversed-phase C18 HPLC column, pH 2.7, HPLC method [a], acidic range; read-out: logP[a]
REPORTED_PROPERTY: chromatographic logP
Enter a number only.

Reference set, count: 3
{"columns": ["COMPOUND", "VALUE_OBSERVED"],
 "data": [
  ["Cc1cc(F)c(N2CC(OC3CCCC3)=CC2=O)cc1SCC(F)(F)F [Example 329]", 4.2],
  ["Cc1cc(F)c(-n2nnn(C)c2=O)cc1SCC(F)(F)F [Example 302]", 2.89],
  ["CC[S+]([O-])c1nn(-c2cc(SCC(F)(F)F)c(C)cc2F)c(=O)n1C (stereo not drawn) [Example 243]", 2.55]
]}

For Cc1cc(F)c(-n2nc(Br)n(C(C)C)c2=O)cc1[S+]([O-])CC(F)(F)F (stereo not drawn) [Example 442] the compound record lists chromatographic logP as 2.68

For Cc1cc(F)c(-n2nc(S(C)(=O)=O)n(C)c2=O)cc1[S+]([O-])CC(F)(F)F (stereo not drawn) [Example 421] the compound record lists chromatographic logP as 1.88

For CCSc1nn(-c2cc([S+]([O-])CC(F)(F)F)c(C)cc2F)c(=O)n1C (stereo not drawn) [Example 274] the compound record lists chromatographic logP as 2.42

For Cc1cc(F)c(-n2nnn(C)c2=O)cc1[S+]([O-])CC(F)(F)F (stereo not drawn) [Example 301] the compound record lists chromatographic logP as 1.87

For Cc1cc(F)c(-n2ncn(C(C)C)c2=O)cc1[S+]([O-])CC(F)(F)F (stereo not drawn) [Example 6] the compound record lists chromatographic logP as 1.88

For Cc1nn(-c2cc(SCC(F)(F)F)c(C)cc2F)c(=O)o1 [Example 448] the compound record lists chromatographic logP as 3.11

====

In this section we review reported logP[a] values for a set of molecules.
Test: log P by HPLC (OECD Guideline 117), method [a] acidic range
Assay type: physicochemical
Settings: HPLC, method [a] acidic range
Enter a number only.

{"columns": ["MOLECULE", "VALUE_OBSERVED"],
 "data": [
  ["COc1nn(-c2ccc(Cl)c(SCC(F)(F)F)c2)c(=O)n1C1CC1 [Example 108]", 3.91],
  ["N#Cc1cc(F)c(-n2nc(C(F)(F)F)oc2=O)cc1SCC(F)(F)F [Example 308]", 3.47],
  ["Cc1cc(F)c(-n2nc([S+]([O-])C(C)C)n(C)c2=O)cc1[S+]([O-])CC(F)(F)F (centres unmarked) [Example 245]", 1.94]
]}

For C=CCOc1nn(-c2cc([S+]([O-])CC(F)(F)F)c(C)cc2F)c(=O)n1C1CC1 (centres unmarked) [Example 391] the molecule record lists logP[a] as 2.68

For C=C(C)CCOc1nn(-c2cc([S+]([O-])CC(F)(F)F)c(C)cc2F)c(=O)n1C1CC1 (centres unmarked) [Example 137] the molecule record lists logP[a] as 3.25

For Cc1ccc(-n2nnn(C)c2=O)cc1SCC(F)(F)F [Example 296] the molecule record lists logP[a] as 3.07

For O=c1n(-c2cc([S+]([O-])CC(F)(F)F)c(Cl)cc2F)nc(OCC(F)(F)F)n1C1CC1 (racemic) [Example 382] the molecule record lists logP[a] as 3.22

====

In this section we review reported logP[a] values for a set of compounds.
Assay: log P by HPLC (OECD Guideline 117), method [a] acidic range
Format: physicochemical
Details: HPLC, method [a] acidic range
Enter a number only.

Reference set, count: 7
{"columns": ["COMPOUND", "logP[a]"],
 "data": [
  ["CCOCc1nn(-c2cc(SCC(F)(F)F)c(C)cc2F)c(=S)n1C1CC1", 3.82],
  ["Cc1cc(F)c(-n2nc(C(F)(F)F)n(C(C)(C)C)c2=O)cc1SCC(F)(F)F", 4.78],
  ["O=c1n(-c2ccc(C(F)(F)F)c(SCC(F)(F)F)c2)nc(OCC(F)(F)F)n1C1CC1", 4.55],
  ["CCn1c([S+]([O-])CC)nn(-c2cc([S+]([O-])CC(F)(F)F)c(C)cc2F)c1=O (centres unmarked)", 1.90],
  ["Cc1cc(F)c(-n2nc(SCC(F)(F)F)n(C)c2=O)cc1SCC(F)(F)F", 3.53],
  ["C=CCn1c([S+]([O-])CCC)nn(-c2cc([S+]([O-])CC(F)(F)F)c(C)cc2F)c1=O (centres unmarked)", 2.34],
  ["Cc1cc(F)c(-n2nc(OCC3CC3)n(C3CC3)c2=O)cc1SCC(F)(F)F", 3.99]
]}

For Cc1ccc(-n2nc(OCC(F)(F)F)n(C3CC3)c2=O)cc1SCC(F)(F)F the compound record lists logP[a] as 4.29

====

In this section we review reported chromatographic logP values for a set of compounds.
Experiment: log P by HPLC (OECD Guideline 117), method [a] acidic range
Format: physicochemical
Conditions: reversed-phase C18 HPLC column, pH 2.7, HPLC, acidic range, pH 2.7; read-out: log P[a]
Description: The log P values were determined analogously to OECD Guideline 117 (EC Directive 92/69/EEC) by HPLC (high-performance liquid chromatography) using reversed-phase columns (C 18), by the following methods: [a] The LC-MS determination in the acidic range is effected at pH 2.7 with 0.1% aqueous formic acid and acetonitrile (contains 0.1% formic acid) as eluents; linear gradient from 10% acetonitrile to 95% acetonitrile.

Reference set, count: 3
{"columns": ["COMPOUND", "chromatographic logP"],
 "data": [
  ["Cc1cc(F)c(-n2nnn(-c3ccc(Cl)cc3)c2=O)cc1SCC(F)(F)F", 4.75],
  ["Cc1cc(F)c(-n2nc(C(F)(F)F)n(C)c2=O)cc1SCC(F)(F)F", 3.58],
  ["N#Cc1cc(F)c(-n2nc(C(F)(F)F)n(C3CC3)c2=O)cc1[S+]([O-])CC(F)(F)F (centres unmarked)", 2.92]
]}

For COC1=CC(=O)N(c2cc([S+]([O-])CC(F)(F)F)c(C)cc2F)C1 (centres unmarked) the compound record lists chromatographic logP as 1.83

For Cc1cc(F)c(-n2nn[nH]c2=O)cc1[S+]([O-])CC(F)(F)F (centres unmarked) the compound record lists chromatographic logP as 1.59

For Cc1cc(F)c(-n2nc(C3CC3)n(N(C)C)c2=O)cc1[S+]([O-])CC(F)(F)F (centres unmarked) the compound record lists chromatographic logP as 2.6

For Cc1cc(F)c(NC(=S)NCC(F)(F)F)cc1[S+]([O-])CC(F)(F)F (centres unmarked) the compound record lists chromatographic logP as 2.34

For COc1nn(-c2ccc(C(F)(F)F)c(SCC(F)(F)F)c2)c(=O)n1C the compound record lists chromatographic logP as 3.74
